Test: yeast display, Sf9 membrane polyspecificity reagent, FACS + sequencing; frameworks hold sequencing errors
Parameter Measured: polyreactivity (PSR sort gate)

Solved cases below.
Problem: Look up polyreactivity (PSR sort gate) of QVQLVESGGGLVQAGGSLRLSCAASGSTFRYYAMGWYRQAPGKERELVAAITFDGGTTSYADSVKGRFTISRDNAKNTVYLQMNSLKPEDTAVYYCAREGRTYWSKSISPYWRYGYWGQGTQVTVSS and report it.
Result: high polyreactivity

Problem: Look up polyreactivity (PSR sort gate) of QVQLVESGGGLVQAGGSLRLSCAASGRTFYYYAMGWYRQAPGKERELVASISRRGGSTYYADSVKGRFTISRDNAKNTVYLQMNSLKPEDTAVYYCAASHYHGYSRMDYWGQGTQVTVSS and report it.
Result: high polyreactivity

Problem: Look up polyreactivity (PSR sort gate) of QVKLVESGGGLVQAGGSLRLSCAAYGLIMGRYAMGWYRQEPGKERELVAAISGSGGSTYYADSVKGRFTISRDNAKNTVYLQMNSLKPEDTAVYYCAADRLRYRDMYYWGQGTQVTVSS and report it.
Result: low polyreactivity

Problem: Look up polyreactivity (PSR sort gate) of QVQLVESGGGLVQAGGSLRLSCAASGRIFGIYAMGWHRQAPGKERELVASITDGTITNYADSVKGRFTISRDNAKNTVYLQMNSLKPEDTAVYYCAAGTQAHAYVVRPIEMDYSGQGTQVTVSS and report it.
Result: low polyreactivity

Next:
Problem: Look up polyreactivity (PSR sort gate) of QVHLVESGGGLVQAGGSLRLSCAASGLILPYYAMGWYRQARGKERELVAAISRTGGRTSYADSVKGRFTISRDNAKNTVYLQMNSLKPEDTAVYYCAAVGQSGGRRYDYWGQGTQVTVSS and report it.
Result: high polyreactivity

Problem: Look up polyreactivity (PSR sort gate) of QVQLVESGGGLVQAGGSLRLSCAASGSTFLDYTMGWYRQAPGKERELVAVISYRAGSTYYADSVKGRFTISRDNAKNTVYLQMNSLKPEDTAVYYCNADYYNYWLRRRYVWYESWGQGTQVTVSS and report it.
Result: low polyreactivity

Problem: Look up polyreactivity (PSR sort gate) of QVQLVESGGGLVQAGGSLRLSCAASGSTFWYNAMGWYRQAPGKERELVAAITQSGTRTYYADSVKGRFTISRDNAKNTVFLQMNSLKPEDTAVYYCAAGNAPYYRYGSKKYGYWGQGTQVTVSS and report it.
Result: high polyreactivity

Problem: Look up polyreactivity (PSR sort gate) of QVQLVESGGGLVQAGGSLRLSCAASGRIFVCYAMGLYRQAPGKERELVAAISSSCGSTYYADSVKGRFTISRDKAKNTVYLQMNSLKPEDTAVYYCNTHQRSRMDYWVQGTQVTVSS and report it.
Result: low polyreactivity

Problem: Look up polyreactivity (PSR sort gate) of QVQLVESGGGLVQAGGSLRLSCAASGRIFTHNAMGWYRQAPGKEREVVAAISYSGVSTYYADSVKGRFTISRDNAKNTVYLQRNSLNTDDTAVYFCARRYWYPDAFYRYDYWGQGTPVTVSS and report it.
Result: low polyreactivity

Problem: Look up polyreactivity (PSR sort gate) of QVQLVESGGGLVQAGGSLRLSCAASGSIFTPYAMGWSRQAPGKLRELVADISRSGSTNYADSVKGRFTISRDNAKNTVYLQMNSLKPEDTAVYYCNADFWWHWGTSYVYWGQGTQVTVSS and report it.
Result: high polyreactivity

Problem: Look up polyreactivity (PSR sort gate) of QVQLVESGGGLVQAGGSLRLSCADSGRTFGRNVMGWYRQAPGKERELVASITRSGGSTYYADSVKGRFTISRDTAKNTVYLEMNSLKPEDTAVYYCAKCYYLWCSYWGPSQYDWGQGSQVTVSS and report it.
Result: high polyreactivity

----------
Assay: yeast display, Sf9 membrane polyspecificity reagent, FACS + sequencing; frameworks hold sequencing errors
Parameter Measured: polyreactivity (PSR sort gate)

Solved cases below.
Problem: Look up polyreactivity (PSR sort gate) of QVQLVESGGGLVQAGGSLRLSCAASGRTFAYNAMGWYRQAPGKERELVAAISRSGTITYYADSVKGRFTISRDNAKNTVYLQMNSLKPEDTAVYYCNKASTYPSYDYWGQGTQVTVSS and report it.
Result: high polyreactivity

Problem: Look up polyreactivity (PSR sort gate) of QVQLVESGGGLVQAGGSLRLSCAASGNIVDYYGMGWYIQAPGKERELVAAINVSGDSTYYADSVKGRFTISRDNAKNTVYLQMNSLKPEDTAVYYCAADYGWGSGFEYDYWGQGTQVTVSS and report it.
Result: low polyreactivity

Problem: Look up polyreactivity (PSR sort gate) of QVQLVETGGGLVQAGGSLRLSCAASGRIFRGNTMGWYRQAPGKERELVAAITIRGRTYYADSVKGRFTISRDNAKNTVYLQMNSLKPEDTAVYYCAVASAGDNDYGGQGTQVTVSS and report it.
Result: low polyreactivity

Problem: Look up polyreactivity (PSR sort gate) of QVQLVESGGGLVQAGGSLRLSCAASGFTFKYYVMGWSRQAPGKERELVASLSKRGGSTRYADSVKGRFTISRDNAKTTFYLQMHSLKPEDTAVYYCAAAFVRPPPYVGYSRFDYWGQGTQVTLSS and report it.
Result: high polyreactivity

Now consider the entry below.
Problem: Look up polyreactivity (PSR sort gate) of QVQLVESGGALFQAGGSLRLSCAASGRIFTIYASRWYRQAPGKATELVATISRRGGSTYYADSVKGRFTISRDNAKNNVYLQMNSLKPEVSAVYYCAADSVITWWAYDYWGQGTQVTVSS and report it.
Result: high polyreactivity

----------
Assay: yeast display, Sf9 membrane polyspecificity reagent, FACS + sequencing; frameworks hold sequencing errors
Parameter Measured: polyreactivity (PSR sort gate)

Problem: Look up polyreactivity (PSR sort gate) of QVQLVESGGGLVQAGGSLRLSCASSGSIFARYALGWYIQAPGKQRELVADINSTVSTNYADSVKGRFTISRDNAKNPVYLQMNSLKPEVTAVSYCAVDIVRGGRDSWGQGTQVTVSS and report it.
Result: low polyreactivity

Problem: Look up polyreactivity (PSR sort gate) of QVQLVETRGGLVQAGGILRFSCAASGFTFSSNDMGWYRQAPAKEREFVAVIDSGDITNYADSVKGRFTISRDNAKNTVYLQMNSLKPEDTAVYYCAARYYAAGIGSRYDYWGQGTQVTVSS and report it.
Result: high polyreactivity

Problem: Look up polyreactivity (PSR sort gate) of QVQLVESGGGIVQAGGSLRLSCAASGSTFRGYAMGWYRQAPGKETELVAAITSRGTRTYYADSVKGRFTISRDNSKNTVSLQMNSLKPEDTAVYYCNVVSDIRLYYRYAYDYWGQGTQVTVSS and report it.
Result: high polyreactivity

Problem: Look up polyreactivity (PSR sort gate) of QVQLVESGAGLVQAGGSLRLSCAASGRTFYYYAMGWYRQAPGKERELVAAISSNGGSTYADSVKGRFTISRDNAKNTVYLQMNSLKPEDTAVYYCAAEPWWQEGDYWGQGTQVTVSS and report it.
Result: high polyreactivity

Problem: Look up polyreactivity (PSR sort gate) of QVQHVESGGGLGQAGGSLRLSCAASGRIFDEYALGSYRQAPGKERELVAAISLIGASTYYADSVKGRFTISRDTAKNTVYLQMNSQHPEDTAVYYCAAEYAFVVPGYYREVYYWGEGTQVTVSS and report it.
Result: low polyreactivity

Problem: Look up polyreactivity (PSR sort gate) of QVQLVESGGGFVQAGGSLRLSCAASGSTLPYYAMGWYRQAHGKERELVADITARGGTYYADSVKGRFTISRDNAKNTVYLQMNSLKPEDTAVYYCAAAYSLWQFYWDQGYDYWGQGTQVTVSS and report it.
Result: high polyreactivity

Next:
Problem: Look up polyreactivity (PSR sort gate) of QVQLVESGGGLVQAGGSLRLSCAASGSIFVSEYVMGLSRPAPGKERELVARIRWSSGSTYYADSVKGRFTISRDNAKNTVYLQIYSLKPEDTAVYYCNKDYYYVIGWTYHRSYHYDYWGQGTQVTVSS and report it.
Result: low polyreactivity

Problem: Look up polyreactivity (PSR sort gate) of QVQLVESGGGLVQAGGSLRLSCAASGITFSVNTMGWYRQAPGKERELVAAITSAGGTYYADSVKGRFTISRDNAKNTVYLQMNSQKPEDTAVYYCAAANFRSYLSQTGPRAYYYWGQGTQVTVSS and report it.
Result: low polyreactivity

Problem: Look up polyreactivity (PSR sort gate) of QVQLVESGGGLVQAGGSLRLSCAASGRIFDPNVMGWYRQAPGKERELVAAIRTSGGRTYYADSVKGRFTISRDNAKNTVYLQMHSLKPEDTAVYYCAKVNRAFPKYLIYGYWGQGTQVTVSS and report it.
Result: high polyreactivity

Problem: Look up polyreactivity (PSR sort gate) of QVQLVESGGGLVQAGGSLRISCAASGSTFKRNVMGWYRQAPGKERELVAAISRTDGRTYYADSVKGRFTISRDNAKNSVYLEMNSLKPEDTAVYYCAATTGHRTYRYYYWGHGTQVTVSS and report it.
Result: high polyreactivity

Problem: Look up polyreactivity (PSR sort gate) of QVQLEESGRGLVQAGGSLRLSCAASGSIFIVYAIGWYRQAPGKERELVAAINDGGSTSYADSVKGRFTISRDNAKNTVYLQMNSLKPEDTAVYFCAAETYLGNDYWEDYYWGQGTQVTVSS and report it.
Result: low polyreactivity

Problem: Look up polyreactivity (PSR sort gate) of QVQLVESGGGLVQAGGSLRLSCAASGGTFDYYAMGWYRQAPGKERELVAAISTSGGRTYYADSVKGRFTISRDNAKNTVYLQMNSLTPEDTAVYYCAALSRRAKYDSFYYWGQGTQVTVSS and report it.
Result: high polyreactivity
